test.details: Drug metabolism in mouse liver microsomes; further: time not given here
Format: ADME, Microsome
experimental.parameters: read-out: Drug metabolism
reported.property: metabolised (%)

structure.string: O=c1cc(N2CCOCC2)nc(Cc2nc3ccccc3n2C2CCCCC2)[nH]1
reported.property: metabolised
reported.result: 96

structure.string: CCn1c(Cc2nc(N3CCOCC3)cc(=O)[nH]2)nc2ccccc21
reported.property: metabolised
reported.result: 48

[A] O=c1cc(N2CCOCC2)nc(Cc2nc3ccc(Cl)cc3[nH]2)[nH]1
[B] Cn1c(Cc2nc(N3CCOCC3)cc(=O)[nH]2)nc2ccccc21
[C] O=c1cc(N2CCOCC2)nc(Cc2nc3c(-c4ccccc4)cccc3[nH]2)[nH]1
[D] O=c1cc(N2CCOCC2)nc(Cc2nc3ccc(F)cc3[nH]2)[nH]1
Query: Order the items by recorded metabolised; the first position goes to the largest value. Write out the labels following the order that was asked for.
Response: C, A, B, D
(C: 51%, A: 35%, B: 13%, D: 0%)
